Experiment: Binding affinity to N-terminal sumo/his-6 tagged SARS CoV-2 MPro (3264 to 3569 residues) extracted from Escherichia coli BL21 Gold (DE3) cells assessed as inhibition constant using Dabcyl-KTSAVLQSGFRKMEE-dans as substrate incubated for 10 mins by FRET assay
Design: species or system Severe acute respiratory syndrome coronavirus 2
Measurement Name: pKi
One number for each entry, as −log10 of the molar value.

Completed entries (count: 3):
The recorded pKi for entry `CC(=O)/C=C/[C@H](C[C@@H]1CCNC1=O)NC(=O)[C@H](CC1CCCCC1)NC(=O)c1ccccc1F` equals 5.79

The reported pKi of the compound `CC(=O)/C=C/[C@H](C[C@@H]1CCNC1=O)NC(=O)[C@H](CC1CCCCC1)NC(=O)c1ccc(F)cc1` was 5.50

Entry under test: `CC(=O)/C=C/[C@H](C[C@@H]1CCNC1=O)NC(=O)[C@H](CC1CC1)NC(=O)c1ccccc1F` . Its pKi was 5.53

Would you mind giving pKi for every compound in the list below?
1. CCCC[C@H](NC(=O)c1ccc(F)cc1)C(=O)N[C@H](/C=C/C(C)=O)C[C@@H]1CCNC1=O
2. CC(=O)/C=C/[C@H](C[C@@H]1CCNC1=O)NC(=O)[C@H](CC(C)(C)C)NC(=O)c1ccc(F)cc1
3. CC(=O)/C=C/[C@H](C[C@@H]1CCNC1=O)NC(=O)[C@H](CC1CCCCC1)NC(=O)c1cccc(F)c1

1: 4.97; 2: 5.26; 3: 5.44

Origin of measurements: ChEMBL document CHEMBL6114939
